test: chemical genetic growth profiling, strain panel (AID 1159580);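 note: tested at 20 µM; growth read once vehicle control cultures reached saturation at 30 °C; 1 = growth at the plate median or of vehicle wells; lower values mean less growth of the strain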; details: S. cerevisiae deletion strains, growth OD, locus YKR091W, strain srl3, active compounds read low
Structures can show the parent of a compound that is named as a salt. Hit rate of the full screen: of about 5,500 compounds, about 2,000 (36%) were called active. Roughly 18% stayed inconclusive and do not appear here. The list shows a part of the results. Where a SMILES comes first, the peptide text is derived from it. The star is where a group is joined. Tfa = O=C(C(F)(F)F)*
measure_name: normalized growth

{"compound": "Cc1cccc(C)c1NC1=NCCCS1", "numeric_readout": 1.01}
{"compound": "O=C1[C@H](CCC(O)c2ccc(F)cc2)[C@@H](c2ccc(O)cc2)N1c1ccc(F)cc1 (some centres undefined)", "numeric_readout": 0.977}
{"compound": "C[N+]1(C)C2CC(OC(=O)[C@@H](CO)c3ccccc3)CC1C1OC12 (some centres undefined)", "numeric_readout": 0.968}
{"compound": "COC(=O)[C@@H]1OC(=O)[C@H]2O[C@@]23[C@@]1(C)CCC1[C@@]2(C)CCC(=O)C(C)(C)C2C[C@@H](OC(C)=O)[C@]13C (some centres undefined)", "numeric_readout": 0.992}
{"compound": "C=C1CCC2C(CC2(C)C)C(=O)CCC1O (centres undefined)", "numeric_readout": 0.988}
{"compound": "NC(N)=NS(=O)(=O)c1ccc(N)cc1", "numeric_readout": 0.991}
{"compound": "COC(=O)C[C@H]1C(C)(C)C(=O)[C@@H]2CC3=C(CC[C@]4(C)C3=CC(=O)O[C@H]4c3ccoc3)[C@@]1(C)C2=O", "numeric_readout": 0.984}
{"compound": "Cn1c(=O)c2[nH]cnc2n(C)c1=O", "numeric_readout": 1.02}
{"compound": "CCOC(=O)c1ccc(O)cc1", "numeric_readout": 1.01}
{"compound": "COc1ccc(-c2coc3cc(OC)cc(OC)c3c2=O)cc1", "numeric_readout": 0.989}
{"compound": "COc1cc(-c2coc3cc(OC)c(OC)c(OC)c3c2=O)cc(OC)c1OC", "numeric_readout": 1}
{"compound": "COc1cc2occ(-c3ccccc3)c(=O)c2c(OC)c1C", "numeric_readout": 0.976}
{"compound": "CC(C)C(NC(=O)C(Cc1ccc(O)cc1)NC(=O)C(NC(=O)C(F)(F)F)C(C)C)C(=O)O (stereo not drawn) (Tfa-Val-Tyr-Val-OH; configuration not given here)", "numeric_readout": 0.983}
{"compound": "NC(=O)c1cccc(N)c1", "numeric_readout": 0.977}

---

assay: chemical genetic growth profiling, strain panel (AID 1159580);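 note: tested at 20 µM; growth read once vehicle control cultures reached saturation at 30 °C; 1 = growth at the plate median or of vehicle wells; lower values mean less growth of the strain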; conditions: S. cerevisiae deletion strains, growth OD, locus YPL055C, strain LGE1, active compounds read low
Screen size: about 5,500 compounds; about 2,000 (36%) were called active. Not shown: some 18% with an inconclusive outcome. The list shows a part of the results.

{"molecule": "COC(=O)[C@@H](N)Cc1ccc(O)c(O)c1", "normalized growth": "0.971 (inactive)"}
{"molecule": "CCOC(=O)Cn1c(=O)c(C#N)cn(C(C)C)c1=O", "normalized growth": "0.984 (inactive)"}
{"molecule": "OC(CN1CCN(c2nc3ccc(Cl)cc3s2)CC1)CN1CCCN(c2ncc(C(F)(F)F)cc2Cl)CC1 (centres undefined)", "normalized growth": "0.985 (inactive)"}
{"molecule": "OCc1cnc[nH]1", "normalized growth": "1.01 (inactive)"}

Values compiled from PubChem BioAssay AID1159580.
